Recorded pIC50 by entry
Target: recombinant CREBBP bromodomain (Homo sapiens)
Construct: recombinant CREBBP bromodomain obtained from BPS Bioscience, USA
Sequence (Q92793 1085-1192 limits assumed): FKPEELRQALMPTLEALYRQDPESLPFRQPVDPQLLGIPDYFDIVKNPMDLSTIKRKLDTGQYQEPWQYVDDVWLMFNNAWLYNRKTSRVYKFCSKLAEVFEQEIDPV
Assay: CBP TR-FRET displacement assay
Conditions: dose-response, read-out: IC50 (group A, B, C)
pIC50: −log10 of the molar value.
Observed property: pIC50

[[record]]
compound = "COc1cc(N2CCCc3cc(-c4cnn(C)c4)ncc32)c2cc(C)c(=O)n(C)c2c1"
endpoint_value = "> 7.30"

[[record]]
compound = "COc1cc2c(cc1-c1cnn(C)c1)CCCN2c1nc(N2CCC(O)C2)cc2c1cc(C)c(=O)n2C (stereo not shown)"
endpoint_value = "7.00 to 7.29"

[[record]]
compound = "CCC(=O)NS(=O)(=O)c1ccc2c(c1)N(c1cc(OC)cc3c1cc(C)c(=O)n3C)CCN2C"
endpoint_value = "7.00 to 7.29"

[[record]]
compound = "Cc1cc2c(N3CCN(C)c4ccc(S(N)(=O)=O)cc43)cc(OC(F)F)cc2n(C)c1=O"
endpoint_value = "< 8.00"


----------
Target: recombinant CREBBP bromodomain (Homo sapiens)
Construct: recombinant CREBBP bromodomain obtained from BPS Bioscience, USA
Test: CBP TR-FRET displacement assay
Settings: dose-response, read-out: IC50 (group A, B, C)
Observed property: IC50

[[record]]
compound = "COc1cc(N2CCN(C)c3cc(C4CC=NO4)c(S(N)(=O)=O)cc32)c2cc(C)c(=O)n(C)c2c1 (stereo not drawn) [Example 91]"
endpoint_value = "< 50 nM"

[[record]]
compound = "COc1cc(N2CCNc3cc(-c4cnn(C)c4)c(C#N)cc32)c2cc(C)c(=O)n(C)c2c1 [Example 62]"
endpoint_value = "> 10 nM"

[[record]]
compound = "Cc1cc2c(N3CCCc4cc(-c5cnn(C)c5)c(C(F)F)cc43)nc(N3CC[C@H](O)C3)cc2n(C)c1=O [Example 210]"
endpoint_value = "< 50 nM"

[[record]]
compound = "COc1cc(N2CCCc3cc(N4CCN(C(C)=O)CC4)ncc32)c2cc(C)c(=O)n(C)c2c1 [Example 166]"
endpoint_value = "51 to 100 nM"

[[record]]
compound = "COc1cc(N2CCN(C)c3ccc(-c4cnn(C)c4)cc32)c2cc(C)c(=O)n(C)c2c1 [Example 80]"
endpoint_value = "> 10 nM"

[[record]]
compound = "Cc1cc2c(N3CCSc4cc(-c5cnn(C)c5)ncc43)cc(N3CCOCC3)cc2n(C)c1=O [Example 171]"
endpoint_value = "< 50 nM"

[[record]]
compound = "COc1cc(N2CCCc3ccc(C#N)cc32)c2cc(C)c(=O)n(C)c2c1 [Example 184]"
endpoint_value = "> 10 nM"

[[record]]
compound = "CC1Cc2c(cc(N3CC[C@@H](O)C3)cc2N2CCCc3cc(-c4cnn(C)c4)c(C(F)F)cc32)N(C)C1=O (stereo partly drawn) [Example 193]"
endpoint_value = "> 10 nM"

[[record]]
compound = "CC(=O)NS(=O)(=O)c1ccc2c(c1)N(c1cc(N3CC[C@@H](O)C3)cc3c1cc(C)c(=O)n3C)CCN2C [Example 105]"
endpoint_value = "< 50 nM"

[[record]]
compound = "COc1cc(N2CC(=O)Nc3cc(-c4cnn(C)c4)c(F)cc32)c2cc(C)c(=O)n(C)c2c1 [Example 55]"
endpoint_value = "51 to 100 nM"

[[record]]
compound = "Cc1cc2c(N3CCN(C)c4cc(-c5cnn(C)c5)ncc43)cc(OC3CCOC3)cc2n(C)c1=O (stereo not drawn) [Example 157]"
endpoint_value = "51 to 100 nM"

[[record]]
compound = "Cc1cc2c(N3CCCc4cc(-c5cnn(C)c5)c(C(F)F)cc43)nc(N3CC4CCC(C3)O4)cc2n(C)c1=O [Example 217]"
endpoint_value = "< 50 nM"

[[record]]
compound = "CC(=O)N1CCC(c2cc(N3CCN(C)c4cc(-c5cnn(C)c5)ncc43)c3cc(C)c(=O)n(C)c3c2)CC1 [Example 153]"
endpoint_value = "< 50 nM"

[[record]]
compound = "Cc1cc2c(N3CCN(C)c4cc(-c5cnn(C)c5)ncc43)cc(N3C[C@@H]4C[C@H]3CO4)cc2n(C)c1=O [Example 146]"
endpoint_value = "< 50 nM"

[[record]]
compound = "Cc1cc2c(N3CCCc4cc(-c5cnn(C)c5)c(C(F)F)cc43)nc(N3CCC(C)(N)CC3)cc2n(C)c1=O [Example 222]"
endpoint_value = "< 50 nM"


----------
Target: recombinant CREBBP bromodomain (Homo sapiens)
Construct: recombinant CREBBP bromodomain obtained from BPS Bioscience, USA
Assay: CBP TR-FRET displacement assay
Conditions: dose-response, read-out: IC50 (group A, B, C)
Observed property: IC50

[[record]]
compound = "COc1cc(N2CCN(C)c3cc(C4=CCN(C)CC4)c(C#N)cc32)c2cc(C)c(=O)n(C)c2c1"
observed_property = "IC50"
endpoint_value = "< 50 nM"

[[record]]
compound = "COc1cc(N2CCN(C)c3cc(S(N)(=O)=O)ccc32)c2cc(C)c(=O)n(C)c2c1"
observed_property = "IC50"
endpoint_value = "> 10 nM"

[[record]]
compound = "Cc1cc2c(N3CCN(C)c4cc(-c5cnn(C)c5)c(C#N)cc43)cc(OCCO)cc2n(C)c1=O"
observed_property = "IC50"
endpoint_value = "< 50 nM"

[[record]]
compound = "CNC(=O)c1ccc(-c2cc3c(cc2C#N)N(c2cc(OC)cc4c2cc(C)c(=O)n4C)CCN3C)cn1"
observed_property = "IC50"
endpoint_value = "< 50 nM"

[[record]]
compound = "Cc1cc2c(N3CCCc4cc(-c5cnn(C)c5)ncc43)cc(N3C[C@H]4C[C@@H]3CO4)cc2n(C)c1=O"
observed_property = "IC50"
endpoint_value = "< 50 nM"

[[record]]
compound = "COc1cc(N2CCCc3ccc(C(F)F)cc32)c2cc(C)c(=O)n(C)c2c1"
observed_property = "IC50"
endpoint_value = "> 10 nM"

[[record]]
compound = "CNC(=O)C1CCN(c2ccc3c(c2)CCCN3c2cc(OC)cc3c2cc(C)c(=O)n3C)CC1"
observed_property = "IC50"
endpoint_value = "> 10 nM"

[[record]]
compound = "Cc1cc2c(N3CCN(C)c4cc(-c5cnn(C(C)C)c5)ncc43)cc(N3CCOCC3)cc2n(C)c1=O"
observed_property = "IC50"
endpoint_value = "< 50 nM"

[[record]]
compound = "COc1cc(N2CCN(C)c3cc(-c4cccnc4)c(C#N)cc32)c2cc(C)c(=O)n(C)c2c1"
observed_property = "IC50"
endpoint_value = "< 50 nM"

[[record]]
compound = "Cc1cc2c(N3CCN(C)c4cc(-c5cnn(C)c5)ncc43)cc(C3CCC(F)(F)CC3)cc2n(C)c1=O"
observed_property = "IC50"
endpoint_value = "51 to 100 nM"

[[record]]
compound = "COc1cc(N2CCN(C)c3ccc(S(=O)(=O)NC(=O)C(C)(C)C)cc32)c2cc(C)c(=O)n(C)c2c1"
observed_property = "IC50"
endpoint_value = "> 10 nM"

[[record]]
compound = "COc1cc(N2CCN(C)c3ccc(S(=O)(=O)Nc4ccccc4)cc32)c2cc(C)c(=O)n(C)c2c1"
observed_property = "IC50"
endpoint_value = "> 10 nM"

[[record]]
compound = "Cc1cc2c(N3CCN(C)c4cc(-c5cnn(C)c5)ncc43)cc(C3CCOC3)cc2n(C)c1=O (stereo not drawn)"
observed_property = "IC50"
endpoint_value = "< 50 nM"

[[record]]
compound = "COc1cc(N2CCN(C3CC3)c3ccc(S(N)(=O)=O)cc32)c2cc(C)c(=O)n(C)c2c1"
observed_property = "IC50"
endpoint_value = "51 to 100 nM"

[[record]]
compound = "CNC(=O)[C@H]1CCN(c2cc3c(cc(C)c(=O)n3C)c(N3CCCc4cc(-c5cnn(C)c5)c(C(F)F)cc43)n2)C1"
observed_property = "IC50"
endpoint_value = "< 50 nM"


----------
Recorded IC50 by entry
Molecular target: recombinant P300 bromodomain (Homo sapiens)
Construct: recombinant P300 bromodomain obtained from BPS Bioscience, USA
Sequence (Q09472 1049-1156 limits assumed): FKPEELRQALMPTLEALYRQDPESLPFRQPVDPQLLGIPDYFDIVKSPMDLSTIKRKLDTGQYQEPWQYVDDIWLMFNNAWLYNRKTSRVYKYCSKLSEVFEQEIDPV
Experiment: P300 TR-FRET displacement assay
Details: dose-response, read-out: IC50 (group A, B, C)
Observed property: IC50

[[record]]
compound = "COc1cc(N2CC(C)N(C)c3cc(-c4cnn(C)c4)c(C#N)cc32)c2cc(C)c(=O)n(C)c2c1 (centres unmarked) [Example 13]"
endpoint_value = "< 25 nM"

[[record]]
compound = "COCCOc1cc(N2CCN(C)c3cc(-c4cnn(C)c4)c(C#N)cc32)c2cc(C)c(=O)n(C)c2c1 [Example 37]"
endpoint_value = "< 25 nM"

[[record]]
compound = "Cc1cc2c(N3CCN(C)c4cc(-c5cnn(C)c5)c(C#N)cc43)cc(OCCN3CCOCC3)cc2n(C)c1=O [Example 36]"
endpoint_value = "< 25 nM"

[[record]]
compound = "COc1ccc(CN2CCN(c3cc(OC)cc4c3cc(C)c(=O)n4C)c3cc(C#N)c(-c4cnn(C)c4)cc32)cc1 [Example 8]"
endpoint_value = "> 50000 nM"

[[record]]
compound = "COc1cc(N2CCNc3cc(-c4cnn(C)c4)c(C#N)cc32)c2cc(C)c(=O)n(C)c2c1 [Example 62]"
endpoint_value = "25 to 50 nM"

[[record]]
compound = "Cc1cc2c(N3CCN(C)c4cc(-c5cnn(C)c5)c(C#N)cc43)cc(OCCN(C)C)cc2n(C)c1=O [Example 39]"
endpoint_value = "< 25 nM"

[[record]]
compound = "COC(=O)c1cc2c(cc1C#N)N(c1cc(OC)cc3c1cc(C)c(=O)n3C)CCN2C [Example 67]"
endpoint_value = "25 to 50 nM"

[[record]]
compound = "Cc1cc2c(N3CCCc4cc(-c5cnn(C)c5)c(C(F)F)cc43)nc(C3CCOCC3)cc2n(C)c1=O [Example 242]"
endpoint_value = "< 25 nM"

[[record]]
compound = "CNC(=O)[C@@H]1CCN(c2cc3c(cc(C)c(=O)n3C)c(N3CCCc4cc(-c5cnn(C)c5)c(C(F)F)cc43)n2)C1 [Example 211]"
endpoint_value = "< 25 nM"

[[record]]
compound = "Cc1cc2c(N3CCN(C)c4cc(-c5cnn(C)c5)ncc43)cc(N3C[C@@H]4C[C@H]3CO4)cc2n(C)c1=O [Example 146]"
endpoint_value = "> 50000 nM"

[[record]]
compound = "Cc1cc2c(N3CCN(C)c4cc(-c5cnn(C)c5)c(C#N)cc43)nccc2[nH]c1=O [Example 54]"
endpoint_value = "> 50000 nM"

[[record]]
compound = "COc1cc(N2CCN(C)c3cc(-c4cnn(C)c4)c(C#N)cc32)c2cc(C)c(=O)[nH]c2c1 [Example 7]"
endpoint_value = "> 50000 nM"

[[record]]
compound = "COc1cc(N2CCN(C)c3cc(-n4cc(C)cn4)c(C#N)cc32)c2cc(C)c(=O)n(C)c2c1 [Example 10]"
endpoint_value = "25 to 50 nM"

[[record]]
compound = "COc1cc(N2CCN(C)c3ccc(-c4cnn(C)c4)cc32)c2cc(C)c(=O)n(C)c2c1 [Example 80]"
endpoint_value = "> 50000 nM"

[[record]]
compound = "COc1cc(N2CCc3cc(-c4cnn(C)c4)c(C(F)F)cc32)c2cc(C)c(=O)n(C)c2c1 [Example 195]"
endpoint_value = "25 to 50 nM"

[[record]]
compound = "Cc1cc2c(N3CCN(C)c4cc(-c5cnn(C)c5)c(C#N)cc43)cc(OCCO)cc2n(C)c1=O [Example 60]"
endpoint_value = "< 25 nM"

[[record]]
compound = "COc1cc(N2CCN(C)c3cc(N4CCN(C(C)=O)CC4)c(C#N)cc32)c2cc(C)c(=O)n(C)c2c1 [Example 23]"
endpoint_value = "< 25 nM"

[[record]]
compound = "Cc1cc2c(N3CCN(C)c4cc(-c5cnn(C)c5)c(C#N)cc43)cccc2[nH]c1=O [Example 2]"
endpoint_value = "< 25 nM"

[[record]]
compound = "CNC(=O)c1ccc(-c2cc3c(cc2C(F)F)N(c2cccc4c2cc(C)c(=O)n4C)CCC3)cn1 [Example 176]"
endpoint_value = "< 25 nM"

[[record]]
compound = "COc1cc(N2CCN(C)c3cc(-c4cccnc4)c(C#N)cc32)c2cc(C)c(=O)n(C)c2c1 [Example 15]"
endpoint_value = "25 to 50 nM"

[[record]]
compound = "Cc1cc2c(N3CCN(C)c4cc(-c5cnn(C)c5)c(C#N)cc43)cccc2n(C)c1=O [Example 42]"
endpoint_value = "25 to 50 nM"

[[record]]
compound = "CNC(=O)c1ccc(-c2cc3c(cc2C#N)N(c2cc(OC)cc4c2cc(C)c(=O)n4C)CCN3C)cn1 [Example 11]"
endpoint_value = "< 25 nM"

[[record]]
compound = "COc1cc(N2CCN(C)c3cc(N4CCC(O)C4)c(C#N)cc32)c2cc(C)c(=O)n(C)c2c1 (centres unmarked) [Example 20]"
endpoint_value = "25 to 50 nM"

[[record]]
compound = "Cc1ccc2[nH]c(=O)c(C)cc2c1N1CCN(C)c2cc(-c3cnn(C)c3)c(C#N)cc21 [Example 38]"
endpoint_value = "> 50000 nM"

[[record]]
compound = "Cc1cc2c(N3CCN(C)c4cc(-c5cnn(C)c5)ncc43)cc(N3CCOCC3)cc2n(C)c1=O [Example 134]"
endpoint_value = "> 50000 nM"

[[record]]
compound = "Cc1cc2c(N3CCN(C)c4cc(-c5cnn(C)c5)c(C#N)cc43)cc(OCC(=O)OC(C)(C)C)cc2n(C)c1=O [Example 3]"
endpoint_value = "> 50000 nM"

[[record]]
compound = "CNC(=O)[C@H]1CCN(c2cc3c(cc(C)c(=O)n3C)c(N3CCCc4cc(-c5cnn(C)c5)c(C(F)F)cc43)n2)C1 [Example 212]"
endpoint_value = "< 25 nM"

[[record]]
compound = "Cc1cc2c(N3CCCc4cc(-c5cnn(C)c5)c(C(F)F)cc43)nc(N3C[C@@H](O)[C@H](O)C3)cc2n(C)c1=O [Example 215]"
endpoint_value = "< 25 nM"

[[record]]
compound = "COc1cc(N2CCN(C)c3cc(N4CCOCC4)c(C#N)cc32)c2cc(C)c(=O)n(C)c2c1 [Example 18]"
endpoint_value = "25 to 50 nM"

